Measured apparent Kd (screen) accompanies every entry in the list below.
- EXPERIMENTAL_TARGET: T1, TNFR1 (Homo sapiens, UniProt P19438)
- T1 chain: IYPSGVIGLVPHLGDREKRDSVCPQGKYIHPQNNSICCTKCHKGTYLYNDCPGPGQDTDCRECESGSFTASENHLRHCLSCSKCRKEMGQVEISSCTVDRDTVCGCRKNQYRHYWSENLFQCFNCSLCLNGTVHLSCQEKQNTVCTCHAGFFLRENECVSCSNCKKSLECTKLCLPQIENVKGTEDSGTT
- METHOD: yeast display SC50
Write the number in nM without appending the unit.

Study these solved cases before continuing.
INSERT INTO assay_data (binder, experimental_endpoint, measured_result) VALUES
  ('E67P (designed binder) MTLQELLREEALRRAEAEAFRYALELLAEKFPEQKEYLLDLAEEIESQIRSLSGVDVEDVRKFLDKPWAWVKELLAEHPAELAEVEAARAARLAELRAEVEAKVAA', 'apparent Kd (screen)', 5.31),
  ('A90Y (designed binder) MTLQELLREEALRRAEAEAFRYALELLAEKFPEQKEYLLDLAEEIESQIRSLSGVDVEDVRKFLDKEWAWVKELLAEHPAELAEVEAARYARLAELRAEVEAKVAA', 'apparent Kd (screen)', 0.718),
  ('V100M (designed binder) MTLQELLREEALRRAEAEAFRYALELLAEKFPEQKEYLLDLAEEIESQIRSLSGVDVEDVRKFLDKEWAWVKELLAEHPAELAEVEAARAARLAELRAEMEAKVAA', 'apparent Kd (screen)', 0.49);

Noted for V57I (designed binder) MTLQELLREEALRRAEAEAFRYALELLAEKFPEQKEYLLDLAEEIESQIRSLSGVDIEDVRKFLDKEWAWVKELLAEHPAELAEVEAARAARLAELRAEVEAKVAA : its apparent Kd (screen) reads 2.73

The binder V104Y (designed binder) MTLQELLREEALRRAEAEAFRYALELLAEKFPEQKEYLLDLAEEIESQIRSLSGVDVEDVRKFLDKEWAWVKELLAEHPAELAEVEAARAARLAELRAEVEAKYAA showed apparent Kd (screen) equal to 0.593

The reported apparent Kd (screen) of the binder A94V (designed binder) MTLQELLREEALRRAEAEAFRYALELLAEKFPEQKEYLLDLAEEIESQIRSLSGVDVEDVRKFLDKEWAWVKELLAEHPAELAEVEAARAARLVELRAEVEAKVAA was 0.539

Looking up K72Y (designed binder) MTLQELLREEALRRAEAEAFRYALELLAEKFPEQKEYLLDLAEEIESQIRSLSGVDVEDVRKFLDKEWAWVYELLAEHPAELAEVEAARAARLAELRAEVEAKVAA , I found its apparent Kd (screen) recorded as 0.593

# apparent Kd (screen) of A90S (designed binder) MTLQELLREEALRRAEAEAFRYALELLAEKFPEQKEYLLDLAEEIESQIRSLSGVDVEDVRKFLDKEWAWVKELLAEHPAELAEVEAARSARLAELRAEVEAKVAA = 0.49
